Tested on: Colon 26
method.notes: Photo-toxicity in mouse Colon 26 cells assessed as reduction in cell surviving fraction at 1 Jcm'-2 of continuous illumination with 350 to 700 nm light incubated for 48 hrs by sulforhodamine B assay
Assay type: functional, cell-based
experimental.setup: Colon 26, 48 h
Assign EC50 to each entry below.
Just the number in nM, nothing appended.

Can you look up EC50 on Colon 26 for "CCN(CC)C(=S)c1ccc(-c2c3ccc(=[N+](C)C)cc-3[se]c3cc4c(cc23)C(C)(C)CCN4C)s1.[Cl-]" ?
170

EC50 of "CN1CCC(C)(C)c2cc3c(-c4ccc(C(=S)N5CCCCC5)s4)c4ccc(=[N+](C)C)cc-4[se]c3cc21.[Cl-]" on Colon 26?
140

What reported EC50 corresponds to "CN1CCC(C)(C)c2cc3c(-c4ccc(C(=O)N5CCCCC5)s4)c4ccc(=[N+](C)C)cc-4[se]c3cc21.[Cl-]" on Colon 26?
410

Query for Colon 26: what EC50 does the record show for "CCN(CC)C(=O)c1ccc(-c2c3ccc(=[N+](C)C)cc-3[se]c3cc4c(cc23)C(C)(C)CCN4C)s1.[Cl-]" ?
300

---

Assignment: determine reported degraded for the given compounds.
method.notes: Photo-stability assessed as drug degradation exposed to after 230 Jcm'-2 of continuous illumination with 350 to 800 nm light in solutions of 10% CH3OH in pH 7.4 buffer
Format: physicochemical
experimental.setup: solution of 10% CH3OH in pH 7.4 buffer, read-out: Drug degradation
Return type: number; implicit unit %.

Quick one: degraded for "CN1CCC(C)(C)c2cc3c(-c4ccc(C(=S)N5CCCCC5)s4)c4ccc(=[N+](C)C)cc-4[se]c3cc21.[Cl-]" ?
50

Which degraded is reported for this compound? "CCN(CC)C(=S)c1ccc(-c2c3ccc(=[N+](C)C)cc-3[se]c3cc4c(cc23)C(C)(C)CCN4C)s1.[Cl-]"
50

---

method.notes: Permeability in MDCK2-MDR1 cells assessed as cell associated fraction by measuring mass fraction extracted from cell monolayer by methanol wash after 1 hr flux in apical to basolateral direction at 5 uM in presence of 4.3 mg/ml BSA and in absence of P-gp inhibitor LSN335984 by mass spectrometry
Type: ADME, cell-based, Canis lupus familiaris
experimental.setup: dog, mdck-ii
assay.metric: Activity (%)
Your answer is read as %, so omit the unit and give the number.

Which Activity is listed for "CN1CCC(C)(C)c2cc3c(-c4ccc(C(=O)N5CCCCC5)s4)c4ccc(=[N+](C)C)cc-4[se]c3cc21.[Cl-]" ?
16

# get_value(readout='Activity', item= "CN1CCC(C)(C)c2cc3c(-c4ccc(C(=S)N5CCCCC5)s4)c4ccc(=[N+](C)C)cc-4[se]c3cc21.[Cl-]" )
45

---

Test system: Colon 26
method.notes: Drug uptake in mouse Colon 26 cells at 0.5 uM in presence of 100 uM verapamil by flow cytometry
Format: ADME, cell-based
experimental.setup: colon 26, 0.5 µM
assay.metric: fold change (FC)
Enter a number only.

Can you share its fold change (FC)? I mean this compound: "CCN(CC)C(=O)c1ccc(-c2c3ccc(=[N+](C)C)cc-3sc3cc4c(cc23)C(C)(C)CCN4C)s1.F[P-](F)(F)(F)(F)F"
7

Bench note: what fold change (FC) did "CCN(CC)C(=O)c1ccc(-c2c3ccc(=[N+](C)C)cc-3[se]c3cc4c(cc23)C(C)(C)CCN4C)s1.[Cl-]" show?
5

Fill blank: measured fold change (FC) of the compound "CCN(CC)C(=S)c1ccc(-c2c3ccc(=[N+](C)C)cc-3[se]c3cc4c(cc23)C(C)(C)CCN4C)s1.[Cl-]" is ____.
1.3

Give its fold change (FC) value. Item: "CCN(CC)C(=S)c1ccc(-c2c3ccc(=[N+](C)C)cc-3sc3cc4c(cc23)C(C)(C)CCN4C)s1.F[P-](F)(F)(F)(F)F"
1.3

---

method.notes: Permeability in MDCK2-MDR1 cells assessed as cell associated fraction by measuring mass fraction extracted from cell monolayer by methanol wash after 1 hr flux in apical to basolateral direction at 5 uM in presence of 4.3 mg/ml BSA and in presence of P-gp inhibitor LSN335984 by mass spectrometry
Assay type: ADME, cell-based, Canis lupus familiaris
experimental.setup: dog, mdck-ii
assay.metric: Activity (%)
Just the number in %, nothing appended.

Form field: reported Activity of "CN1CCC(C)(C)c2cc3c(-c4ccc(C(=O)N5CCCCC5)s4)c4ccc(=[N+](C)C)cc-4[se]c3cc21.[Cl-]"
39

Please report the recorded Activity for "CN1CCC(C)(C)c2cc3c(-c4ccc(C(=S)N5CCCCC5)s4)c4ccc(=[N+](C)C)cc-4[se]c3cc21.[Cl-]" .
55

---

method.notes: Lipophilicity, log P of the compound by pH 7.4 at 23 degC by UV-visible spectrophotometry based shake flask method
Type: physicochemical
experimental.setup: buffer
assay.metric: logD
No unit in the answer, please; the number alone is enough.

Name the reported logD value associated with the compound "CCN(CC)C(=O)c1ccc(-c2c3ccc(=[N+](C)C)cc-3[se]c3cc4c(cc23)C(C)(C)CCN4C)s1.[Cl-]"
2.26

I would be grateful if you could share the reported logD for "CN1CCC(C)(C)c2cc3c(-c4ccc(C(=S)N5CCCCC5)s4)c4ccc(=[N+](C)C)cc-4[se]c3cc21.[Cl-]" .
1.61

Using the record for "CCN(CC)C(=S)c1ccc(-c2c3ccc(=[N+](C)C)cc-3[se]c3cc4c(cc23)C(C)(C)CCN4C)s1.[Cl-]" , report its logD.
2.41

Can you share its logD? I mean this compound: "CN1CCC(C)(C)c2cc3c(-c4ccc(C(=O)N5CCCCC5)s4)c4ccc(=[N+](C)C)cc-4[se]c3cc21.[Cl-]"
2.23
